Each entry below carries its reported peptide exchange yield.
target: T1, HLA-A*03:01 (human); test: UV-ligand exchange, anti-b2m ELISA; peptide exchange yield grade (>10% +, >20% ++, >50% +++, >75% ++++)
T1 construct: MHC class I monomer first loaded with a UV-sensitive peptide that is cleaved by UV irradiation and exchanged for the test peptide; captured on streptavidin plates; also called peptide-receptive MHC molecules

{"BINDER": "CLANYTVNK", "peptide exchange yield": "> 75%"}
{"BINDER": "KVFAEHKISY", "peptide exchange yield": "50 to 75%"}
{"BINDER": "RLSPGPRAY", "peptide exchange yield": "50 to 75%"}
{"BINDER": "RTYTCQVTY", "peptide exchange yield": "> 75%"}
{"BINDER": "RCFSGPYLNK", "peptide exchange yield": "> 75%"}
{"BINDER": "ATNGKVLKK", "peptide exchange yield": "> 75%"}
{"BINDER": "VVYDTMIEKF", "peptide exchange yield": "> 75%"}

Below: the item to evaluate.
Per the records, this binder ( "KINQYIIKK" ) has peptide exchange yield equal to 50 to 75%

Measured values drawn from patent US20200000897A1 for this set.
